System: OVCAR-3
Test: NCI tumour cell line growth inhibition, 48 h
Active and inactive are the calls of the source. Cut-off read from the data, not from the text of the source: active = GI50 up to about 1.1 µM and inactive = higher.
The reply should name one outcome from True for active, False for inactive

Below are worked cases with known answers.
compound	assigned_category
c1ccc(CCN(Cc2nc3ccccc3[nH]2)Cc2nc3ccccc3[nH]2)cc1	False
Oc1nc(S)nc2c1CCCN2	False
CC(C)[Si](OC12CCC(CC1O)CC2C(=O)O)(C(C)C)C(C)C (centres undefined)	False

Query: Outcome logged for "Cc1ccc(/C=c2\cc3oc(=O)c4cccc(c4-3)c2=O)cc1" in this assay:
Reply: False

Query: Test call, this compound: Cc1cc(=O)oc2c(CNC(CC(C)C)C(=O)O)c(O)ccc12 (centres undefined)
Reply: False

Query: // return assay outcome for "CNC(=S)NN=C1NCCCCN1"
Reply: False

Query: Can you look up the reported call for "O=C(OC1=CCN(Br)C1=O)C1=C(O)C(=O)N(Br)C1" for me?
Reply: False

Query: What classification did "Nc1nc(Nc2ccccc2)sc1C(=O)c1c[nH]c2ccccc12" end up with in this test?
Reply: False

Query: Dear colleague, could you share the recorded outcome for "Nc1c(/N=N/c2ccc(-c3ccc(/N=N/c4c(O)ccc5cc(S(=O)(=O)O)cc(S(=O)(=O)O)c45)cc3)cc2)c(S(=O)(=O)O)cc2cc(S(=O)(=O)O)c(/N=N/c3ccccc3)c(O)c12" when you have a moment?
Reply: False

Query: Please share the test call associated with "C/C(CN1C(=O)c2ccccc2C1=O)=N\NS(=O)(=O)c1ccc(F)cc1" .
Reply: False

Query: Any idea what this test logged for COC(=O)C(C(=O)C(=O)Nc1c(Cl)cc([N+](=O)[O-])cc1Cl)c1nc2cc(C)c(C)cc2nc1O (centres undefined) ?
Reply: False

Query: // outcome(item) with item = "O=C1C=C(Cl)C(=O)C(c2ccc(Cl)cc2)=C1"
Reply: False

Query: Please state the recorded outcome for this compound: "CC(C)=CCCc1c(C)ccc2c1C(=O)C(=O)C(C(C)C)=C2"
Reply: False

Query: Outcome logged for COC(=O)c1ccc2c(c1)C(NC(C)=O)CCc1cc(OC)c(OC)c(OC)c1-2 (centres undefined) in this assay:
Reply: True

Query: Would you mind telling me which call this test gave "O=c1cc(N2CCOCC2)n2c(ccc3ccccc32)n1" ?
Reply: False

Query: Hi, sorry to bother you, what did the test record for "CC(=O)/N=C1\NC(=O)/C(=C/c2ccc(Cl)cc2Cl)N1C" ?
Reply: False

Query: Short answer needed: outcome of this test for "CC(=O)OCc1cc(CCC(=O)NCCNc2c3ccccc3nc3ccccc23)cc(COC(C)=O)c1O[Si](C)(C)C(C)(C)C" ?
Reply: False

Query: What is the recorded call for this compound in the test? "BrCC[N+]12CCCN1CCC2"
Reply: False

Query: // return assay outcome for "Cc1cc2c(cc1-c1cc3c(cc1C)C(C(C)C)=C(O)C(=O)/C3=C\Nc1c3ccccc3nc3ccccc13)/C(=C/Nc1c3ccccc3nc3ccccc13)C(=O)C(O)=C2C(C)C"
Reply: False

====

Test system: LXFL 529
Assay: NCI tumour cell line growth inhibition, 48 h
The source made the active and inactive calls. No stated cut-off is given here; in the data, active = GI50 up to about 1.1 µM and inactive = higher.
# valid calls are true (active), false (inactive); nothing else

Would you please look over these solved cases?
molecule	assigned_category
CCOC(=O)Nn1c(C)cc(C(=O)OC)c1C	false
O=C(NCCCN1CCN(CCCNC(=O)c2cccc3ccccc23)CC1)c1cccc2ccccc12	false
CC(=O)OC1CC(n2cc(F)c(=O)[nH]c2=O)OC1CO (stereo not drawn)	true
COc1ccc(C(C)c2cc3c(cc2OC)OCO3)cc1 (stereo not drawn)	true
COc1ccc(/C=C/C(=O)c2c(-c3ccccc3)nn(C)c(=O)c2N2CCCCC2)cc1	false

Query: Assay outcome for "CC(=O)/C=C/c1ccc(C)cc1" : what was it?
Reply: false

Query: What outcome does the record of this test show for COc1cc(C2C(Cl)C(=O)N2NC(=O)Cc2ccccc2)cc(Br)c1O (stereo not drawn) ?
Reply: false

Query: In this assay, the call recorded for "Cc1cc(NS(=O)(=O)c2ccc(NC(=O)c3ccc(Cl)c4c(Nc5ccc(S(=O)(=O)Nc6cc(C)on6)cc5)c5ccccc5nc34)cc2)no1" was what?
Reply: false

Query: Please state the recorded outcome for this molecule: CCC1CCc2c(OC)ccc(OCC(=O)O)c2C1=O (stereo not drawn)
Reply: false

All figures here come from ChEMBL document CHEMBL1201862.
